# tgt: human μ opiate receptor (Homo sapiens, UniProt P35372)
# Construct: purchased PerkinElmer Life Sciences, Zaventem, Belgium RB-HOM; host or cells: CHO-K1 cells (membrane preparation)
# Sequence (P35372 whole entry): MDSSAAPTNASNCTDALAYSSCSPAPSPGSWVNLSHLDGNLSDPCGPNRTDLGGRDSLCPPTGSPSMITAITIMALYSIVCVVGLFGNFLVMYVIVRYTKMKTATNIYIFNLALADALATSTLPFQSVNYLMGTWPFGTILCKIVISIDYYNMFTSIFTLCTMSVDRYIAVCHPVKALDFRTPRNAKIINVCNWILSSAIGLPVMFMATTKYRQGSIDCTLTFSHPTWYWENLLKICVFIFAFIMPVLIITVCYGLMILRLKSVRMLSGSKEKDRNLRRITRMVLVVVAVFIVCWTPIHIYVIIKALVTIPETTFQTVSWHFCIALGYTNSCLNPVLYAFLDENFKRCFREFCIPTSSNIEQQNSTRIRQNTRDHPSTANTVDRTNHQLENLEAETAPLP
# test_summary: Affinity for the human μ opiate receptor ([3H]-naloxone displacement, CHO-K1 receptor membrane preparation, SPA)
# Type: binding
# study_conditions: test concentration of 1 μM
# Protocol: Binding data of the compounds on the μ opioid receptor and data on the inhibition of reuptake of serotonin (5-HT) are given in Table 1. The data for the μ receptor were measured at a test concentration of 1 μM, and those for the serotonin reuptake at 10 μM. The values are stated in % inhibition. […] The receptor affinity for the human p opiate receptor is determined in a homogeneous set-up in microtitre plates. […]
Recorded μ (binding on the μ opioid receptor, % inhibition) for the following compounds
Express the result in % but write the number alone.

Please review the entries below; each comes with its answer.
CN(C)C(c1ccccc1)C1CCC(NC(=O)COC2CCN(S(=O)(=O)c3ccc(F)cc3)C2)CC1 (stereo not shown) ... 93
CN(C)C(c1cccc(F)c1)C1CCC(CNC(=O)COCCN(Cc2ccccc2)S(=O)(=O)c2ccccc2)CC1 (stereo not shown) ... 64
COc1ccc(S(=O)(=O)N2CCCCC2COCC(=O)NC2CCC(C(c3cccs3)N(C)C)CC2)cc1OC (stereo not shown) ... 72

Look up μ (binding on the μ opioid receptor, % inhibition): COc1ccc(S(=O)(=O)N(C)CCOCC(=O)NCCC2CCC(C(c3ccc(F)cc3)N(C)C)CC2)cc1OC (stereo not shown)
35

Look up μ (binding on the μ opioid receptor, % inhibition): CN(C)C(c1cccc(F)c1)C1CCC(NC(=O)COC2CCN(S(=O)(=O)c3ccccc3)C2)CC1 (stereo not shown)
72

Look up μ (binding on the μ opioid receptor, % inhibition): COc1cc(C)c(S(=O)(=O)N2CCC(OCC(=O)NCC3CCC(C(c4cccc(F)c4)N(C)C)CC3)C2)c(C)c1C (stereo not shown)
82

Look up μ (binding on the μ opioid receptor, % inhibition): CN(C)C(c1ccc(F)cc1)C1CCC(NC(=O)COCCN(C)S(=O)(=O)c2c(Cl)cc(Cl)cc2Cl)CC1 (stereo not shown)
60

----------
# tgt: bradykinin 1 receptor (B1R) of the rat (Rattus norvegicus)
# Construct: expressed in transfected cells; host or cells: CHO K1 cells
# Sequence (P97583 whole entry): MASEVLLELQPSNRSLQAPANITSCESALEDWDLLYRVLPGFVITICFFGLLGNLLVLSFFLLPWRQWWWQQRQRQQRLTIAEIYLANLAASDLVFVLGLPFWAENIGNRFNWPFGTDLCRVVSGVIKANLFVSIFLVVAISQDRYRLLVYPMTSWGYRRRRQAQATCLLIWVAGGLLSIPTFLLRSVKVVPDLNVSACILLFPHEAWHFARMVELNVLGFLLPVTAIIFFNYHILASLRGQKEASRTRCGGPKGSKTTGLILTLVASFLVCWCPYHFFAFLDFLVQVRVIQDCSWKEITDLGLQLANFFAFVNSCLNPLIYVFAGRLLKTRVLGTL
# test_summary: Functional investigation on the rat bradykinin 1 receptor (B1R), Ca2+ FLIPR assay in CHO K1 rB1R cells
# Assay type: cell-based
# study_conditions: CHO-K1, B1R antagonism rat; test substance 10 μM; Ca2+ FLIPR, CHO K1 rB1R cells; read-out: B1R Ant. r [10 μM] % Inhibition
Recorded inhibition at 10 µM for the following molecules
Express the result in % but write the number alone.

Please review the entries below; each comes with its answer.
Cc1cc(C)c(S(=O)(=O)N2CCC(OCC(=O)NCCC3CCC(C(c4cccs4)N(C)C)CC3)C2)c(C)c1 (centres unmarked) ... 54
COc1cc(C)c(S(=O)(=O)N2CCCC(OCC(=O)NCC3CCC(C(c4cccc(F)c4)N(C)C)CC3)C2)c(C)c1C (centres unmarked) ... 33
O=C(COCCN(C1CC1)S(=O)(=O)c1c(Cl)cc(Cl)cc1Cl)NC1CCC(C(c2ccccc2)N2CCCC2)CC1 (centres unmarked) ... 85

Look up inhibition at 10 µM: CN(C)C(Cc1ccccc1)C1CCC(NC(=O)COCCN(C)S(=O)(=O)c2c(Cl)cc(Cl)cc2Cl)CC1 (centres unmarked)
43

Look up inhibition at 10 µM: COc1ccc(S(=O)(=O)N(C)CCOCC(=O)NCCC2CCC(C(c3cccs3)N(C)C)CC2)cc1 (centres unmarked)
46

Look up inhibition at 10 µM: COc1cc(C)c(S(=O)(=O)N2CCC(OCC(=O)NC3CCC(C(c4ccccc4)N4CCOCC4)CC3)C2)c(C)c1 (centres unmarked)
88

Look up inhibition at 10 µM: CN(C)C(c1cccc(F)c1)C1CCC(CNC(=O)COC2CCCCC2N(C)S(=O)(=O)c2ccc(Cl)c(Cl)c2)CC1 (centres unmarked)
17

Look up inhibition at 10 µM: COc1cc(C)c(S(=O)(=O)N2CCCC(OCC(=O)NCC3CCC(C(c4cccs4)N(C)C)CC3)C2)c(C)c1C (centres unmarked)
11

Look up inhibition at 10 µM: COc1cc(C)c(S(=O)(=O)N(CCOCC(=O)NCCC2CCC(C(c3cccs3)N(C)C)CC2)Cc2ccccc2)c(C)c1 (centres unmarked)
10

Look up inhibition at 10 µM: CCN(CCOCC(=O)NC1CCC(C(c2cccc(F)c2)N(C)C)CC1)S(=O)(=O)c1c(C)cc(OC)c(C)c1C (centres unmarked)
47

Look up inhibition at 10 µM: COc1cc(C)c(S(=O)(=O)N2CCCC2COCC(=O)NCC2CCC(C(CCc3ccccc3)N3CCOCC3)CC2)c(C)c1 (centres unmarked)
109

Look up inhibition at 10 µM: COc1cc(C)c(S(=O)(=O)N2CCCC(OCC(=O)NC3CCC(C(CCc4ccccc4)N4CCCCC4)CC3)C2)c(C)c1 (centres unmarked)
89

Look up inhibition at 10 µM: CN(CCOCC(=O)NCC1CCC(C(c2ccccc2)N2CCCC2)CC1)S(=O)(=O)c1c(Cl)cc(C(F)(F)F)cc1Cl (centres unmarked)
15

Look up inhibition at 10 µM: COc1cc(C)c(S(=O)(=O)N2CCN(CCOCC(=O)NCC3CCC(C(c4ccccc4)N(C)C)CC3)CC2)c(C)c1C (centres unmarked)
25

----------
# tgt: human bradykinin 1 receptor (B1R) (Homo sapiens, UniProt P46663)
# Construct: expressed in transfected cells; host or cells: CHO K1 cells
# Sequence (P46663 1-353): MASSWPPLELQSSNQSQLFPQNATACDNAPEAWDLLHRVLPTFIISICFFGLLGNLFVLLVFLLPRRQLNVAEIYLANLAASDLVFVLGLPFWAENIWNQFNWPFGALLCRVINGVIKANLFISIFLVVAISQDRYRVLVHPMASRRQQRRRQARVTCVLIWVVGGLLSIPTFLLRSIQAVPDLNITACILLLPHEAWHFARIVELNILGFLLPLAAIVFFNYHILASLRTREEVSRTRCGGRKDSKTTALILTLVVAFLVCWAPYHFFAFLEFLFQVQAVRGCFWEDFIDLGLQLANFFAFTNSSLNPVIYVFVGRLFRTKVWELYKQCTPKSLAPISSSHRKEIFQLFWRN
# test_summary: Functional investigation on the human bradykinin 1 receptor (B1R), Ca2+ FLIPR assay in CHO K1 hB1R cells
# Type: cell-based
# study_conditions: CHO-K1, B1R antagonism human; test substance 10 μM; Ca2+ FLIPR, CHO K1 hB1R cells; read-out: B1R Ant. h [10 μM] % Inhibition
value_type: inhibition at 10 µM (%)
Express the result in % but write the number alone.

Please review the entries below; each comes with its answer.
CN(CCOCC(=O)NCC1CCC(C(CCc2ccccc2)N2CCOCC2)CC1)S(=O)(=O)c1ccc(Cl)cc1Cl (stereo not shown) ... 59
COc1cc(C)c(S(=O)(=O)N2CCC(OCC(=O)NCC3CCC(C(c4cccs4)N(C)C)CC3)C2)c(C)c1 (stereo not shown) ... 98
Cc1ccc(S(=O)(=O)N2CCC(OCC(=O)NC3CCC(C(c4cccc(F)c4)N(C)C)CC3)C2)cc1 (stereo not shown) ... -12
COc1cc(C)c(S(=O)(=O)N2CCC(OCC(=O)NCC3CCC(C(c4ccccc4)N4CCOCC4)CC3)C2)c(C)c1 (stereo not shown) ... 55
CN(C)C(c1ccccc1)C1CCC(NC(=O)COC2CCN(S(=O)(=O)c3c(Cl)cc(Cl)cc3Cl)C2)CC1 (stereo not shown) ... 64
COc1cc(C)c(S(=O)(=O)N2CCC(OCC(=O)NC3CCC(C(c4ccccc4)N(C)C)CC3)C2)c(C)c1 (stereo not shown) ... 98

Next, consider the following compound.
Look up inhibition at 10 µM: COc1cc(C)c(S(=O)(=O)N2CCCC2COCC(=O)NCC2CCC(C(c3ccccc3)N3CCCC3)CC2)c(C)c1 (stereo not shown)
105

----------
# tgt: human bradykinin 1 receptor (B1R) (Homo sapiens)
# Construct: expressed in transfected cells; host or cells: CHO K1 cells
# test_summary: Functional investigation on the human bradykinin 1 receptor (B1R), Ca2+ FLIPR assay in CHO K1 hB1R cells
# Type: cell-based
# study_conditions: B1R antagonism human; test substance 10 μM; Ca2+ FLIPR, CHO K1 hB1R cells
value_type: B1R Ant. h [10 μM] % Inhibition (%)
Express the result in % but write the number alone.

COc1ccc(S(=O)(=O)N2CCCCC2COCC(=O)NCCC2CCC(C(c3ccc(Cl)cc3)N(C)C)CC2)c(OC)c1 (centres unmarked) ... 17
CN(C)C(c1ccc(F)cc1)C1CCC(CCNC(=O)COCCN(C)S(=O)(=O)c2ccc(OC(F)(F)F)cc2)CC1 (centres unmarked) ... 19
CN(C)C(c1ccccc1)C1CCC(NC(=O)COCCN(C)S(=O)(=O)c2c(Cl)cc(Cl)cc2Cl)CC1 (centres unmarked) ... 86
COc1ccc(S(=O)(=O)N(C)CCOCC(=O)NCC2CCC(C(c3ccc(Cl)cc3)N(C)C)CC2)cc1OC (centres unmarked) ... −5
CN(C)C(c1cccc(F)c1)C1CCC(NC(=O)COCCN(C)S(=O)(=O)c2c(Cl)cc(Cl)cc2Cl)CC1 (centres unmarked) ... 89
CN(C)C(c1ccccc1)C1CCC(NC(=O)COCCN(C)S(=O)(=O)c2ccc(F)cc2)CC1 (centres unmarked) ... −10
CN(C)C(c1cccc(F)c1)C1CCC(CCNC(=O)COCCN2CCN(S(=O)(=O)c3ccccc3)CC2)CC1 (centres unmarked) ... 45
Cc1cc(C)c(S(=O)(=O)N2CCC(OCC(=O)NCCC3CCC(C(c4ccc(Cl)cc4)N(C)C)CC3)C2)c(C)c1 (centres unmarked) ... 83
CN(C)C(CCc1ccccc1)C1CCC(CNC(=O)COC2CCN(S(=O)(=O)c3cccc(C(F)(F)F)c3)C2)CC1 (centres unmarked) ... 49
CN(C)C(c1ccc(F)cc1)C1CCC(CCNC(=O)COCCN(C)S(=O)(=O)c2c(Cl)cc(Cl)cc2Cl)CC1 (centres unmarked) ... 104

Look up B1R Ant. h [10 μM] % Inhibition: CN(C)C(c1ccc(F)cc1)C1CCC(NC(=O)COCCN(C)S(=O)(=O)c2cccc(C(F)(F)F)c2)CC1 (centres unmarked)
9

Look up B1R Ant. h [10 μM] % Inhibition: Cc1cc(C)c(S(=O)(=O)N2CCC(OCC(=O)NCC3CCC(C(CCc4ccccc4)N(C)C)CC3)C2)c(C)c1 (centres unmarked)
103

Look up B1R Ant. h [10 μM] % Inhibition: CN(C)C(c1ccccc1)C1CCC(NC(=O)COCC2CCCN2S(=O)(=O)c2c(Cl)cc(Cl)cc2Cl)CC1 (centres unmarked) [Example 613]
66

Look up B1R Ant. h [10 μM] % Inhibition: COc1cc(C)c(S(=O)(=O)N(C)CCOCC(=O)NC2CCC(C(c3ccc(F)cc3)N(C)C)CC2)c(C)c1C (centres unmarked)
86
